Cited source: ChEMBL document CHEMBL1909046

EXPERIMENTAL SYSTEM: Adenosine receptor A3 (Homo sapiens, UniProt P0DMS8);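 further: radioligand binding assay with AB-MECA serving as the labeled ligand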
Sequence (P0DMS8 whole entry): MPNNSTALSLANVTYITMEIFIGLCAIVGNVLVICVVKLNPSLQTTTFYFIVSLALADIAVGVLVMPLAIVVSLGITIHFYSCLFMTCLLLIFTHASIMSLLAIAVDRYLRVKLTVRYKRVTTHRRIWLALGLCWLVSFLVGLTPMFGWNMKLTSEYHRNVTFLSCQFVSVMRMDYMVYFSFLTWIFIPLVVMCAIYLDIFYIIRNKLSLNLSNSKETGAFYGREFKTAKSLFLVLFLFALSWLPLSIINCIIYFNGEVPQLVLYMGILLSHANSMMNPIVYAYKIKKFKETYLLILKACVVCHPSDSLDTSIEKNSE
Type: cell membranes, CHO-K1, Membrane
CONDITION SUMMARY: cho-k1; read-out: Ki
MEASURED ATTRIBUTE: Ki (nM)

In [3]: df
Out[3]:
   residue_codes  value_measured
0      AURANOFIN             954

---

Each record here notes measured pIC50.
EXPERIMENTAL SYSTEM: Substance-K receptor (Homo sapiens, UniProt P21452)
Sequence (P21452 whole entry): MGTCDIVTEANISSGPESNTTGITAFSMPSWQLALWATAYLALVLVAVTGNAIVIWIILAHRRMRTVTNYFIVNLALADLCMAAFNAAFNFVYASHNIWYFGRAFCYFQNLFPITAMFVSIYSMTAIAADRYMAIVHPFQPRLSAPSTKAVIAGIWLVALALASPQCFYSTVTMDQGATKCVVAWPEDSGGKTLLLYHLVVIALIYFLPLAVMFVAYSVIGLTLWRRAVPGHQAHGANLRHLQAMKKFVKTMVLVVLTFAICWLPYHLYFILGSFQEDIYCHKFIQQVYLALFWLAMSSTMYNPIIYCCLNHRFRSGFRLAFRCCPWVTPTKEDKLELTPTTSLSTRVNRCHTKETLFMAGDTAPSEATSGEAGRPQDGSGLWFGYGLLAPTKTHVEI
Format: cell membranes, CHO, Membrane
CONDITION SUMMARY: read-out: IC50
pIC50: −log10 of the molar value.

COMPOUND	pIC50
CC(=O)O[C@H]1C(=O)[C@@]2(C)[C@H]([C@H](OC(=O)c3ccccc3)[C@]3(O)C[C@H](OC(=O)[C@H](O)[C@@H](NC(=O)c4ccccc4)c4ccccc4)C(C)=C1C3(C)C)[C@]1(OC(C)=O)CO[C@@H]1C[C@@H]2O [PACLITAXEL]	5.21
Clc1ccc(COC(Cn2ccnc2)c2ccc(Cl)cc2Cl)cc1 (centres undefined) [ECONAZOLE]	5.22
Oc1c(Cl)cc(Cl)c(Cl)c1Cc1c(O)c(Cl)cc(Cl)c1Cl [HEXACHLOROPHENE]	5.38
CCN(CC)CCOc1ccc(/C(=C(/Cl)c2ccccc2)c2ccccc2)cc1 [ENCLOMIPHENE]	5.34
